- System: M. intracellulare
- test.method.notes: Antibacterial activity (MIC) against M. intracellulare
- Type: cell-based, Mycobacterium intracellulare
- protocol.conditions: M. intracellulare N-345; Table 3
measured.attribute: MIC (µg/mL)
Answers are plain numbers, in µg/mL.

As a guide, the following entries are already answered.
- compound: "C[C@H]1COc2c(N3CC4CCCNC4C3)c(F)cc3c(=O)c(C(=O)O)cn1c23 (some centres unmarked) [Compd. 13]"
  recorded.measurement: 3.13
- compound: "Cc1c(N2CC(N)C3(CC3)C2)c(F)cc2c(=O)c(C(=O)O)cn(C3CC3)c12 (centres unmarked) [Compd. 11]"
  recorded.measurement: 3.13
- compound: "O=C(O)c1cn(C2CC2)c2c(Cl)c(N3CC4CCCNC4C3)c(F)cc2c1=O (centres unmarked) [Compd. 1]"
  recorded.measurement: 0.39
- compound: "COc1c(N2CC3CCCNC3C2)c(F)cc2c(=O)c(C(=O)O)cn(C3CC3)c12 (centres unmarked) [Compd. 5]"
  recorded.measurement: 3.13
- compound: "Cc1c(N2CC(N)C3(CC3)C2)c(F)cc2c(=O)c(C(=O)O)cn([C@@H]3C[C@@H]3F)c12 (some centres unmarked) [Compd. 12]"
  recorded.measurement: 0.39
- compound: "CC1COc2c(N3CCN(C)CC3)c(F)cc3c(=O)c(C(=O)O)cn1c23 (centres unmarked) [OFLX, OFLOXAIN, reference compound]"
  recorded.measurement: 25

Take each entry in turn and give its MIC.
1. COc1c(N2CC(N)C3(CC3)C2)c(F)cc2c(=O)c(C(=O)O)cn(C3CC3)c12 (centres unmarked) [Compd. 7]
2. NC1CN(c2c(F)cc3c(=O)c(C(=O)O)cn(C4CC4)c3c2Cl)CC12CC2 (centres unmarked) [Compd. 3]

1. 1.56
2. 1.56

* * *

- Test system: M. avium
- test.method.notes: Antibacterial activity (MIC) against M. avium
- Type: cell-based, Mycobacterium avium
- protocol.conditions: M. avium N-357; Table 3
Please respond with reported MIC for every item in the list.
Answer by giving the amount and then stating its unit.

As a guide, the following entries are already answered.
- molecule: "O=C(O)c1cn(C2CC2)c2c(Cl)c(N3CC4CCCNC4C3)c(F)cc2c1=O (stereo not drawn) [Compd. 1]"
  recorded.measurement: "0.10 mg/L"
- molecule: "C[C@H]1COc2c(N3CC(N)C4(CC4)C3)c(F)cc3c(=O)c(C(=O)O)cn1c23 (stereo partly drawn) [Compd. 14]"
  recorded.measurement: "1.56 mg/L"
- molecule: "NC1CN(c2c(F)cc3c(=O)c(C(=O)O)cn(C4CC4)c3c2Cl)CC12CC2 (stereo not drawn) [Compd. 3]"
  recorded.measurement: "0.39 mg/L"
- molecule: "COc1c(N2CC(N)C3(CC3)C2)c(F)cc2c(=O)c(C(=O)O)cn([C@@H]3C[C@@H]3F)c12 (stereo partly drawn) [Compd. 8]"
  recorded.measurement: "1.56 mg/L"
- molecule: "Cc1c(N2CC3CCCNC3C2)c(F)cc2c(=O)c(C(=O)O)cn([C@@H]3C[C@@H]3F)c12 (stereo partly drawn) [Compd. 10]"
  recorded.measurement: "0.05 mg/L"

Take each entry in turn and give its MIC.
1. COc1c(N2CC(N)C3(CC3)C2)c(F)cc2c(=O)c(C(=O)O)cn(C3CC3)c12 (stereo not drawn) [Compd. 7]
2. Cc1c(N2CC3CCCNC3C2)c(F)cc2c(=O)c(C(=O)O)cn(C3CC3)c12 (stereo not drawn) [Compd. 9]
3. C[C@H]1COc2c(N3CC4CCCNC4C3)c(F)cc3c(=O)c(C(=O)O)cn1c23 (stereo partly drawn) [Compd. 13]
4. NC1CN(c2c(F)cc3c(=O)c(C(=O)O)cn([C@@H]4C[C@@H]4F)c3c2Cl)CC12CC2 (stereo partly drawn) [Compd. 4]
5. Cc1c(N2CC(N)C3(CC3)C2)c(F)cc2c(=O)c(C(=O)O)cn(C3CC3)c12 (stereo not drawn) [Compd. 11]

["0.39 mg/L", "0.10 mg/L", "0.39 mg/L", "0.20 mg/L", "0.39 mg/L"]
